In this section we review reported IC50 values for a set of molecules.
- Tested on: T. brucei (Squib 427)
- test method notes: In vitro drug susceptibility assay, T. brucei
- Assay type: cell-based
- experimental setup: Trypanosoma brucei; Table 1; mean and SEM of two independent experiments; read-out: T. brucei in vitro activity (IC50)
- Procedure: Drug susceptibility assays with T. brucei (Squib 427), T. evansi type A (RoTat 1.2) and T. equiperdum (BoTat 1.1) were performed under similar conditions. Parasites were cultured in HMI-9 culture medium supplemented with 10% iFBS. To determine in vitro susceptibility of the abovementioned Trypanosoma species, 10 concentrations of a 4-fold dilution series (with a highest in-test concentration of 64 μM) was prepared for each compound, and parasites were seeded at 1.5×10^4 parasite/well. […]
// return numeric value only (unit: nM, not printed)

OC[C@H]1O[C@@H](n2ccc3c(SCCc4ccccc4)ncnc32)[C@H](O)[C@@H]1O: 410

# input Determine its reported IC50: CC(C)Sc1ncnc2c1ccn2[C@@H]1O[C@H](CO)[C@@H](O)[C@H]1O
# output 540

# input Identify measured IC50 corresponding to Cc1ccc(CSc2ncnc3c2ccn3[C@@H]2O[C@H](CO)[C@@H](O)[C@H]2O)cc1
# output 31

# input Write down IC50 measured for item OC[C@H]1O[C@@H](n2ccc3c(Sc4ccccc4)ncnc32)[C@H](O)[C@@H]1O
# output 31

# input For the molecule CC(C)CSc1ncnc2c1ccn2[C@@H]1O[C@H](CO)[C@@H](O)[C@H]1O , give its reported IC50.
# output 32

# input Give IC50 for the following molecule: COc1ccc(CSc2ncnc3c2ccn3[C@@H]2O[C@H](CO)[C@@H](O)[C@H]2O)cc1
# output 130

# input Note down IC50 recorded for CCCCSc1ncnc2c1cnn2[C@@H]1O[C@H](CO)[C@@H](O)[C@H]1O
# output 260

# input Let me know recorded IC50 for CCCCCSc1ncnc2c1ccn2[C@@H]1O[C@H](CO)[C@@H](O)[C@H]1O , thanks.
# output 31
